Experiment: Solubility of adenosine in water with and without hydrotropes
Details: water
observed.property: solubility thermodynamic

Request: Any idea what solubility thermodynamic was measured for Nc1ncnc2c1ncn2[C@@H]1O[C@H](CO)[C@@H](O)[C@H]1O ?
Response: < 5000 µg/mL

---

Assay: Solubility of baicalin in water as a function of pH
Type: physicochemical
Conditions: water, pH 5, water, in water, pH 5; read-out: Solubility
observed.property: solubility (µg/mL)
Write it as a number; the unit µg/mL goes unstated.

Request: Any idea what solubility was measured for O=C(O)[C@H]1O[C@@H](Oc2cc3oc(-c4ccccc4)cc(=O)c3c(O)c2O)[C@H](O)[C@@H](O)[C@@H]1O [Baicalin] ?
Response: 350

---

Test: Solubility of baicalin in water as a function of pH
Assay type: physicochemical
Details: water, pH 3, water, in water, pH 3; read-out: Solubility
observed.property: solubility (µg/mL)
Write it as a number; the unit µg/mL goes unstated.

Request: Any idea what solubility was measured for O=C(O)[C@H]1O[C@@H](Oc2cc3oc(-c4ccccc4)cc(=O)c3c(O)c2O)[C@H](O)[C@@H](O)[C@@H]1O ?
Response: 16

---

Assay: Solubility of baicalin in water as a function of pH
Format: physicochemical
Conditions: water, pH 4, water, in water, pH 4; read-out: Solubility
observed.property: solubility (µg/mL)
Write it as a number; the unit µg/mL goes unstated.

Request: Any idea what solubility was measured for O=C(O)[C@H]1O[C@@H](Oc2cc3oc(-c4ccccc4)cc(=O)c3c(O)c2O)[C@H](O)[C@@H](O)[C@@H]1O ?
Response: 40

---

Experiment: Solubility of baicalin in water as a function of pH
Type: physicochemical
Details: water, pH 3.5, water, in water, pH 3.5; read-out: Solubility
observed.property: solubility (µg/mL)
Write it as a number; the unit µg/mL goes unstated.

Request: Any idea what solubility was measured for O=C(O)[C@H]1O[C@@H](Oc2cc3oc(-c4ccccc4)cc(=O)c3c(O)c2O)[C@H](O)[C@@H](O)[C@@H]1O ?
Response: 21
